- systemUnderTest: human SOS1 (nucleotide exchange of K-Ras^G12C) (Homo sapiens, UniProt Q07889)
- testName: Biochemical assay 2: K-Ras^G12C activation assay by hSOS1 at high GTP concentration (HTRF)
- conditionNotes: high GTP; read-out: Assay 2 (KRAS-Activation by SOS high GTP) activity expressed as IC50
Reported IC50 values for a set of compounds
A number alone suffices; assume nM.

The cases that follow already have their IC50 on record.
INSERT INTO measurements (compound, testresult) VALUES
  ('COc1cc2nc(C)nc(NC(C)c3ccc(-c4ccccc4CN[C@H]4CCN(C)C4=O)s3)c2cc1OC (stereo partly shown)', 690),
  ('COc1cc2nc(C)nc(NC(C)c3ccc(-c4ccccc4CN4CCN(C)CC4)s3)c2cc1OC (stereo not shown)', 229),
  ('COc1cc2nc(C)nc(NC(C)c3cc(C)cc4[nH]ncc34)c2cc1OC (stereo not shown)', 3020);

// below: IC50 requested for another compound
q: Return IC50 measured with human SOS1 (nucleotide exchange of K-Ras^G12C) (Homo sapiens, UniProt Q07889) given this compound: COc1cc2nc(C)nc(N[C@H](C)c3cccc(-c4ccccc4NC(C)=O)c3)c2cc1OC
a: 1280

###

Reported IC50 values for a set of compounds
- systemUnderTest: K-Ras^G12C : hSOS1 interaction (Homo sapiens, UniProt Q07889)
- testName: Biochemical assay 1: K-Ras^G12C interaction assay with hSOS1 (HTRF)
- Assay type: binding
- conditionNotes: read-out: Assay 1 (KRAS-SOS Interaction) activity expressed as IC50
A number alone suffices; assume nM.

INSERT INTO measurements (compound, testresult) VALUES
  ('COc1cc2nc(C)nc(N[C@H](C)c3cccc(Br)c3)c2cc1OCc1ccccc1 [Example 343]', 1680),
  ('COc1cc2nc(C)nc(N[C@H](C)c3cccc(-c4ccc(CNS(C)(=O)=O)cc4)c3)c2cc1OC [Example 72]', 737);

// below: IC50 requested for another compound
q: Reported IC50, compound COc1cc2nc(C)nc(NC(C)c3c(C)nc4ccccn34)c2cc1OC (stereo not shown) [Example 26] : ____
a: 9550

###

Reported IC50 values for a set of compounds
- systemUnderTest: human SOS1 (loading of human K-Ras^G12C-GDP with fluorescent GTP-analog) (Homo sapiens, UniProt Q07889)
- testName: Biochemical assay 3: K-Ras^G12C activation assay by hSOS1 (HTRF)
- conditionNotes: no GTP; read-out: Assay 3 (KRAS-Activation by SOS no GTP) activity expressed as IC50
A number alone suffices; assume µM.

q: Reported IC50, compound COc1cc2nc(C)nc(NC(C)c3ccc(-c4ccccc4CN4CC(F)C4)s3)c2cc1OC (centres unmarked) [Example 322] : ____
a: 0.268

q: Reported IC50, compound COc1cc2nc(C)nc(NC(C)c3cccc(-c4nn[nH]n4)c3)c2cc1OC (centres unmarked) [Example 216] : ____
a: 16.1

q: Reported IC50, compound COc1cc2nc(C)nc(NC(C)c3ccc(-c4ccccc4CNCC(N)=O)s3)c2cc1OC (centres unmarked) [Example 279] : ____
a: 0.16

q: Reported IC50, compound COc1cc2nc(C)nc(N[C@H](C)c3cccc(-c4ccc(NC(=O)OC(C)(C)C)cc4)c3)c2cc1OC [Example 92] : ____
a: 9.26

q: Reported IC50, compound COc1cc2nc(C)nc(NC(C)c3ccc(-c4ccccc4CN4CC(N(C)C)C4)s3)c2cc1OC (centres unmarked) [Example 319] : ____
a: 0.127

q: Reported IC50, compound COc1cc2nc(C)nc(NC(C)c3ccc(-c4ccccc4C#N)s3)c2cc1OC (centres unmarked) [Example 245] : ____
a: 0.918

q: Reported IC50, compound COc1cc2nc(C)nc(NC(C)c3cccc4cccnc34)c2cc1OC (single isomer, unassigned; enantiomer 1) [Example 230] : ____
a: 13.3

q: Reported IC50, compound COc1cc2nc(C)nc(N[C@H](C)c3ccc(Br)cc3)c2cc1OC [Example 187] : ____
a: 1.26
